target_under_test: Kras and SOS1 (biotin-tagged human Kras loaded with GDP, His-tagged human SOS1) (Homo sapiens, UniProt P01116, G12D)
Construct: made in house; host or cells: E. coli (stated for Kras only)
Sequence (P01116 1-188 isoform P01116-2 G12D): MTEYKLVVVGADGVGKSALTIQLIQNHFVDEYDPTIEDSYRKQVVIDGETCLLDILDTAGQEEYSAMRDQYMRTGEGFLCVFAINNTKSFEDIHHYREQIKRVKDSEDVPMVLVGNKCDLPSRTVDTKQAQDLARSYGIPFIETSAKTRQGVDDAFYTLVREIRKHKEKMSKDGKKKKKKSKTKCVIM
measurement_notes: Protein-protein interaction inhibition between Kras and SOS1 (KrasGl2D-SOS PPI) using AlphaScreen
Assay type: binding
condition_context: AlphaScreen; biotin-tagged human Kras loaded with GDP, His-tagged human SOS1; read-out: KRAS G12D-SOS PPI IC50
Starred links: 1 amine or outer side, 2 acyl side, 3 side chain; linkers in the order of their positions; H or OH if unused. Positions of bridges follow the written chain, without caps; N, C: chain ends. Non-standard residues stand in square brackets, D forms with d. Residues, ends and D or L forms follow the SMILES beside them. *: point of attachment. hPhe(3-Cl-4-CF3) = N[C@@H](CCc1ccc(C(F)(F)F)c(Cl)c1)C(=O)O; X28 = CCCCOc1cc(CC[C@H](N[*:1])C(=O)[*:2])cc(Cl)c1Cl; hPhe(4-CF3) = N[C@@H](CCc1ccc(C(F)(F)F)cc1)C(=O)O; NMePhe(4-Cl) = CN[C@@H](Cc1ccc(Cl)cc1)C(=O)O; Oic = O=C(O)[C@@H]1C[C@@H]2CCCC[C@@H]2N1; NMeCha = CN[C@@H](CC1CCCCC1)C(=O)O; NMeD = CN[C@@H](CC(=O)O)C(=O)O; NMeL = CN[C@@H](CC(C)C)C(=O)O; NMeV = CN[C@H](C(=O)O)C(C)C; d(β3hA) = C[C@@H](N)CC(=O)O; dPip = O=C(O)[C@H]1CCCCN1; NMeA = CN[C@@H](C)C(=O)O; Piperidide = C1CCN(*)CC1; Ac5c = NC1(C(=O)O)CCCC1; Aze = O=C(O)[C@@H]1CCN1; Aib = CC(C)(N)C(=O)O; Sar = CNCC(=O)O
experimental_endpoint: IC50 (µM)
Answer format: numeric, µM implied, no suffix.

CC[C@H](C)[C@@H]1NC(=O)[C@H](C)N(C)C(=O)C[C@@H](C(=O)N2CCCCC2)N(C)C(=O)[C@H](C(C)C)N(C)C(=O)C2(CCCC2)NC(=O)[C@@H]2CCCN2C(=O)[C@H](CCc2ccc(C(F)(F)F)c(Cl)c2)NC(=O)[C@H]2CCCCN2C(=O)[C@H](CC2CCCCC2)N(C)C(=O)[C@@H]2CCN2C(=O)[C@H](C)N(C)C1=O [Compound 349] ([NMeA]I[NMeA][Aze][NMeCha][dPip][hPhe(3-Cl-4-CF3)]P[Ac5c][NMeV][NMeD]-Piperidide; lactam N-11) | 0.19

Which value of IC50 has been reported for CCCCOc1cc(CC[C@@H]2NC(=O)CN(C)C(=O)[C@H](CC3CCCCC3)N(C)C(=O)CN(C)C(=O)CN(C)C(=O)[C@H]([C@@H](C)CC)NC(=O)[C@H](C)N(C)C(=O)C[C@@H](C(=O)N3CCCCC3)N(C)C(=O)[C@H](C(C)C)N(C)C(=O)C3(CCCC3)NC(=O)[C@@H]3CCCN3C2=O)cc(Cl)c1Cl [Compound 2083] ([NMeA]I[Sar][Sar][NMeCha][Sar][X28]P[Ac5c][NMeV][NMeD]-Piperidide; lactam N-11) in the records? 0.052

What IC50 value was documented for this compound, CC[C@H](C)[C@@H]1NC(=O)[C@H](C)N(C)C(=O)C[C@@H](C)NC(=O)[C@H](CC(C)C)N(C)C(=O)C(C)(C)NC(=O)[C@@H]2C[C@@H]3CCCC[C@@H]3N2C(=O)[C@H](CCc2ccc(C(F)(F)F)cc2)NC(=O)CN(C)C(=O)[C@H](Cc2ccc(Cl)cc2)N(C)C(=O)CN(C)C(=O)CN(C)C1=O [Compound 521] (cyclo([Aib][NMeL][d(β3hA)][NMeA]I[Sar][Sar][NMePhe(4-Cl)][Sar][hPhe(4-CF3)][Oic])) ? 0.071

###

target_under_test: Kras and SOS1 (biotin-tagged human Kras loaded with GDP, His-tagged human SOS1) (Homo sapiens, UniProt P01116, G12D)
Construct: made in house; host or cells: E. coli (stated for Kras only)
measurement_notes: Protein-protein interaction inhibition between Kras and SOS1 (KrasGl2D-SOS PPI) using AlphaScreen
Type: binding
condition_context: AlphaScreen; biotin-tagged human Kras loaded with GDP, His-tagged human SOS1; read-out: KRAS G12D-SOS PPI IC50
Starred links: 1 amine or outer side, 2 acyl side, 3 side chain; linkers in the order of their positions; H or OH if unused. Positions of bridges follow the written chain, without caps; N, C: chain ends. Non-standard residues stand in square brackets, D forms with d. Residues, ends and D or L forms follow the SMILES beside them. *: point of attachment. hPhe(3-Cl-4-CF3) = N[C@@H](CCc1ccc(C(F)(F)F)c(Cl)c1)C(=O)O; X54 = O=C([C@H](Cc1cccc(Br)c1F)N[*:1])[*:2]; NMeY = CN[C@@H](Cc1ccc(O)cc1)C(=O)O; NMeCha = CN[C@@H](CC1CCCCC1)C(=O)O; NMeChg = CN[C@H](C(=O)O)C1CCCCC1; NMeI = CC[C@H](C)[C@H](NC)C(=O)O; NMeT = CN[C@H](C(=O)O)[C@@H](C)O; NMeD = CN[C@@H](CC(=O)O)C(=O)O; NMeL = CN[C@@H](CC(C)C)C(=O)O; NMeV = CN[C@H](C(=O)O)C(C)C; d(β3hA) = C[C@@H](N)CC(=O)O; NMeAbu = CC[C@H](NC)C(=O)O; NMeS = CN[C@@H](CO)C(=O)O; Morpholide = C1CN(*)CCO1; NMeA = CN[C@@H](C)C(=O)O; NMeAib = CNC(C)(C)C(=O)O; Nle = CCCC[C@H](N)C(=O)O; Piperidide = C1CCN(*)CC1; Ac5c = NC1(C(=O)O)CCCC1; Aze = O=C(O)[C@@H]1CCN1; X1 = FC1(F)CN(*)CC1(F)F; Cyclobutyl = C1CC(*)C1; Sar = CNCC(=O)O
experimental_endpoint: log10 of IC50 (log10 of the value in nM)
Base-10 log of IC50, unit nM.

Some solved cases for reference:
CCCC[C@@H]1NC(=O)[C@H](Cc2cccc(Br)c2F)NC(=O)CN(C)C(=O)[C@H](Cc2ccc(OC)cc2)N(C)C(=O)[C@@H]2CCN2C(=O)[C@H](C)N(C)C(=O)[C@H]([C@@H](C)CC)NC(=O)[C@H](CC)N(C)C(=O)C[C@@H](C(=O)N2CCCCC2)N(C)C(=O)[C@H](CC(C)C)NC(=O)C(C)(C)N(C)C1=O [Compound 1304] ([NMeAbu]I[NMeA][Aze][NMeY](Me)[Sar][X54][Nle][NMeAib]L[NMeD]-Piperidide; lactam N-11) | 1.93
CC[C@H](C)[C@@H]1NC(=O)[C@H](CC(C)C)N(C)C(=O)C[C@@H](C)NC(=O)[C@H](C(C)C)N(C)C(=O)C2(CCCC2)NC(=O)[C@@H]2CCCN2C(=O)[C@H](CCc2ccc(C(F)(F)F)c(Cl)c2)NC(=O)CN(C)C(=O)[C@H](CC2CCCCC2)N(C)C(=O)[C@@H]2CCN2C(=O)[C@H](CC2CCCCC2)N(C)C1=O [Compound 1581] (cyclo([Ac5c][NMeV][d(β3hA)][NMeL]I[NMeCha][Aze][NMeCha][Sar][hPhe(3-Cl-4-CF3)]P)) | 2.36
CC[C@H](C)[C@@H]1NC(=O)[C@H](COC2CCC2)N(C)C(=O)C[C@@H](C(=O)N2CCCCC2)N(C)C(=O)[C@H](C2CCCCC2)N(C)C(=O)C2(CCCC2)NC(=O)[C@@H]2CCCN2C(=O)[C@H](CCc2ccc(C(F)(F)F)c(Cl)c2)NC(=O)CN(C)C(=O)[C@H](CC2CCCCC2)N(C)C(=O)CN(C)C(=O)CN(C)C1=O [Compound 699] ([NMeS](Cyclobutyl)I[Sar][Sar][NMeCha][Sar][hPhe(3-Cl-4-CF3)]P[Ac5c][NMeChg][NMeD]-Piperidide; lactam N-11) | -0.08
CC[C@H](C)[C@@H]1NC(=O)[C@H]([C@@H](C)O)N(C)C(=O)C[C@@H](C(=O)N2CCCCC2)N(C)C(=O)[C@H](C2CCCCC2)N(C)C(=O)C2(CCCC2)NC(=O)[C@@H]2CCCN2C(=O)[C@H](CCc2ccc(C(F)(F)F)c(Cl)c2)NC(=O)CN(C)C(=O)[C@H](CC2CCCCC2)N(C)C(=O)CN(C)C(=O)CN(C)C1=O [Compound 756] ([NMeT]I[Sar][Sar][NMeCha][Sar][hPhe(3-Cl-4-CF3)]P[Ac5c][NMeChg][NMeD]-Piperidide; lactam N-11) | -0.24
CC[C@H](C)[C@@H]1NC(=O)[C@H](CC(C)C)N(C)C(=O)C[C@@H](C(=O)N2CCCCC2)N(C)C(=O)[C@H](C(C)C)N(C)C(=O)C2(CCCC2)NC(=O)[C@@H]2CCCN2C(=O)[C@H](CCc2ccc(C(F)(F)F)c(Cl)c2)NC(=O)CN(C)C(=O)[C@H](CC2CCCCC2)N(C)C(=O)[C@@H]2CCN2C(=O)[C@H](C2CCCCC2)N(C)C1=O [Compound 1600] ([NMeL]I[NMeChg][Aze][NMeCha][Sar][hPhe(3-Cl-4-CF3)]P[Ac5c][NMeV][NMeD]-Piperidide; lactam N-11) | 2.49
CC[C@H](C)[C@@H]1NC(=O)[C@H](CC(C)C)N(C)C(=O)C[C@@H](C)N(C)C(=O)[C@H](C(C)C)N(C)C(=O)C2(CCCC2)NC(=O)[C@@H]2CCCN2C(=O)[C@H](CCc2ccc(C(F)(F)F)c(Cl)c2)NC(=O)CN(C)C(=O)[C@H](COc2ccccc2Cl)N(C)C(=O)CN(C)C(=O)CN(C)C1=O [Compound 1589] | 1.59
CC[C@H](C)[C@@H]1NC(=O)[C@H](CC(C)C)N(C)C(=O)C[C@@H](C(=O)N2CCOCC2)N(C)C(=O)[C@H](C(C)C)N(C)C(=O)C2(CCCC2)NC(=O)[C@@H]2CCCN2C(=O)[C@H](CCc2ccc(C(F)(F)F)c(Cl)c2)NC(=O)CN(C)C(=O)[C@H](CC2CCCCC2)N(C)C(=O)[C@@H]2CCN2C(=O)[C@H](C)N(C)C1=O [Compound 1178] ([NMeL]I[NMeA][Aze][NMeCha][Sar][hPhe(3-Cl-4-CF3)]P[Ac5c][NMeV][NMeD]-Morpholide; lactam N-11) | 0.00
CC[C@H](C)[C@@H]1NC(=O)[C@H](CC(C)C)N(C)C(=O)C[C@@H](C(=O)N2CC(F)(F)C(F)(F)C2)NC(=O)[C@H]([C@@H](C)CC)N(C)C(=O)C2(CCCC2)NC(=O)[C@@H]2CCCN2C(=O)[C@H](CCc2ccc(C(F)(F)F)c(Cl)c2)NC(=O)CN(C)C(=O)[C@H](CC2CCCCC2)N(C)C(=O)CN(C)C(=O)CN(C)C1=O [Compound 1168] ([NMeL]I[Sar][Sar][NMeCha][Sar][hPhe(3-Cl-4-CF3)]P[Ac5c][NMeI]D-X1; lactam N-11) | 2.00

Let's switch to this compound now.
Which log10 of IC50 reading was recorded for the compound CC[C@H](C)[C@@H]1NC(=O)[C@H](CC(C)C)N(C)C(=O)C[C@@H](C)NC(=O)[C@H](C(C)C)N(C)C(=O)C2(CCCC2)NC(=O)[C@@H]2CCCN2C(=O)[C@H](CCc2ccc(C(F)(F)F)c(Cl)c2)NC(=O)[C@H]2CCCN2C(=O)[C@H](CC2CCCCC2)N(C)C(=O)CN(C)C(=O)CN(C)C1=O [Compound 76] (cyclo([Ac5c][NMeV][d(β3hA)][NMeL]I[Sar][Sar][NMeCha][dP][hPhe(3-Cl-4-CF3)]P)) ? 2.28
